- targetOfAssay: T1, 285bZIP E287A (human, UniProt P16220-1 285-339, C300S;C310S;C337S;E287A)
- T1 sequence: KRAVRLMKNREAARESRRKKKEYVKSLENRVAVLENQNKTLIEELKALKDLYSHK
- assayInfo: stopped-flow fluorescence (koff/kon); 10 mM Mg2+; 10 mM MES pH 6.5, 150 mM NaCl, 10 mM MgCl2, 0.05% Tween-20, 25 C; NMR: 10 mM Tris-d11, 150 mM NaCl, 10 mM MgCl2, 1 mM NaN3, 5% D2O (NOE at 25 C)
- setupConditions: protein: recombinant; tags: extra N-terminal Gly; chain copies: 2; label: 5' Alexa Fluor 488; hairpin (self-annealing, 11 bp stem, CCCC loop)
assayMetric: pKd
Worth noting: pKd values are minus log10 of concentrations stated in mol/L.

stdin: Provide measured pKd value, entry: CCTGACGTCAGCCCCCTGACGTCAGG (structured_DNA) [AlexaFluor488-CREh]
stdout: 8.72
